Target: T1, extracellular tau in the form of paired helical filaments (ePHF tau) (UniProt P10636-8 1-441, limits assumed)
T1 construct: Aggregated, hyperphosphorylated tau preparation; not a single defined polypeptide
T1 sequence (P10636 other isoform, or with tags, fused parts or gaps limits assumed): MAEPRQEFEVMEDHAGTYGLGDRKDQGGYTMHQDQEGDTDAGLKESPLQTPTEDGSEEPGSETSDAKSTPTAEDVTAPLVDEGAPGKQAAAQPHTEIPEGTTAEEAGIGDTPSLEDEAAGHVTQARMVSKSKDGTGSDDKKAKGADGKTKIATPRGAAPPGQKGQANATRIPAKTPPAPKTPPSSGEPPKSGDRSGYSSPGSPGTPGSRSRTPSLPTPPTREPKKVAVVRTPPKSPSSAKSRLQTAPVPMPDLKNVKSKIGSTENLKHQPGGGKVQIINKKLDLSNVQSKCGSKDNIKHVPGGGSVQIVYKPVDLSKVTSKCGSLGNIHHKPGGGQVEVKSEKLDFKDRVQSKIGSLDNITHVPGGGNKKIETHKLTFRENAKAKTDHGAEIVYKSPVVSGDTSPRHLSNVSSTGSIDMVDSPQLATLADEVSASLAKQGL
Experiment: ePHF tau ELISA, ePHF coated; antibody at 2.1 ng/ml; anti-mouse-HRP
For each of the binders below, state its OD450.
A number alone suffices; assume OD450.

Lookup: Which OD450 is reported for this binder? anti-tau antibody MC1 expressed from viral genome construct MC1LIRESH (TAU_ITR80; SEQ ID NO: 2069) (antibody, mouse IgG1, kappa, V domains shown) VH: QVQLQQSGAELMKPGASVKISCKATGYTFSNYWIEWVKQRPGHGLEWIGEILPGSDSIKYNENFKGKATFTADTSSNTAYMQLSSLTSEDSAVYYCARRGNYPDYWGQGTTLTVSS VL: DVVMTQTPLSLPVSLGDQASISCRSSQSLVHSNGNTYLHWYLQKPGQSPKLLIYKVSNRFSGVPDRFSGSGSGTDFTLKISRVEAEDLGVYFCSQSTHVPLTFGAGTKLELKR
Found: 0.1

Lookup: Same again, this time with anti-tau antibody MC1 expressed from viral genome construct MC1LF.P2AH (TAU_ITR83; SEQ ID NO: 2072) (antibody, V domains shown) VH: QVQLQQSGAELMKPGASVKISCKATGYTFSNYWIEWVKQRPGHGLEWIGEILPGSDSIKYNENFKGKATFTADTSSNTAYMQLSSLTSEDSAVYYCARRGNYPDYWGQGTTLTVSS VL: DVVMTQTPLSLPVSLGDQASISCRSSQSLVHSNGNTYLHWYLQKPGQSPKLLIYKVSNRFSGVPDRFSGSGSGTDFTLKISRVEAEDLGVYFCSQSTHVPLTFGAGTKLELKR
Found: 0.1

Sourced from patent US20220339270A1
